# Assay system: Grb2 SH2 (UniProt P62993)
# Sequence (P62993 whole entry, looked up, the tested form may be a part): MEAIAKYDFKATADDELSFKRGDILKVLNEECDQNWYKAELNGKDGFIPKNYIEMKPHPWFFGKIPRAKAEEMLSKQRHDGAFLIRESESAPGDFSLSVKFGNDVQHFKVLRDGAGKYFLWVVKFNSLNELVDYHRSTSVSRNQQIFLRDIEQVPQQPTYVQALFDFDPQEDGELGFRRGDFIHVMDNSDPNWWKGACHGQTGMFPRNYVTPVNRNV
# Procedure summary: SH2 binding enrichment of the phosphorylated peptide, bacterial display (enrichment ratio); higher = better substrate or ligand; peptides without Tyr show the background;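 further: peptide library displayed on the E. coli surface as eCPX fusions, selected cells deep-sequenced, score is each peptide's frequency after selection divided by its frequency in the input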
Property: SH2 binding enrichment
I'd appreciate a reply containing only the number, no unit.

| Construct sequence | SH2 binding enrichment |
| --- | --- |
| SSFDIYHLSRE [KIR3DL2_Y253_YF] | 0.776 |
| LDFNEYFRDLN [HPRT1_Y198_YF] | 1.01 |
| CNSFQYGGGGG [NPPA_Y151_R150Q] | 0.845 |
| EMTAEYACTRK [ACAD9_Y325] | 1.22 |

Here's the next entry for you.
Query: Which SH2 binding enrichment is listed for LIQRNYKLAAQ [ALPK2_Y1975] ?
Reply: 0.961
